# assay-system: P99 β-lactamase (class C) (Enterobacter cloacae)
# Sequence (P05364 21-381): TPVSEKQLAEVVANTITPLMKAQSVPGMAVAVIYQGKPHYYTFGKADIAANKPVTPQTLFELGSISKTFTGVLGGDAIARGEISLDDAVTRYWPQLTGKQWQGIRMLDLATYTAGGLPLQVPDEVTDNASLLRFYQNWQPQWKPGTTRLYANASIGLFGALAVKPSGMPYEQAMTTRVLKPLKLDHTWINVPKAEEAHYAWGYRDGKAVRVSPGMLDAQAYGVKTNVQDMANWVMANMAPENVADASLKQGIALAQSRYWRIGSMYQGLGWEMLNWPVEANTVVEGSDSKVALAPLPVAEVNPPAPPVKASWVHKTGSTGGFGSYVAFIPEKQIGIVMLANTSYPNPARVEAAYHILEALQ
# assay-comment: biochemical
# Experimental: Enzyme activity against the commercially available substrate, nitrocefin, was measured in the presence of various inhibitor concentrations. The P99 β-lactamase enzyme (1 mg/mL) was dissolved in 20 mM MOPS buffer at pH 7.50, and diluted 200-fold in the same buffer containing 0.1% BSA. […] The reaction at 25° C. was followed spectrophotometrically at 482 nm. IC50 values were determined from the dose-response plots of the initial rates vs. inhibitor concentration
assay-metric: log10 of IC50 (log10 of the value in µM)
Please keep in mind that the values are log10 of IC50 expressed in µM.

Give a short answer stating reported log10 of IC50 for `O=P(O)(CNS(=O)(=O)c1ccsc1)Oc1cccnc1` .
3.56

Note down log10 of IC50 recorded for CN(CP(=O)(O)Oc1ccc([N+](=O)[O-])cc1)S(=O)(=O)c1cc2ccccc2s1.N [Compound 142, ammonium salt]
3.11

Quick one: give measured log10 of IC50 for `O=[N+]([O-])c1ccc(OP(=O)(O)CNS(=O)(=O)c2ccccc2)cc1`
0.60

Please report the measured log10 of IC50 for N.O=P(O)(Oc1cccnc1Cl)C(Cc1ccccc1)NS(=O)(=O)c1cccs1 (centres unmarked) [Compound 46, ammonium salt]
2.27

Recall and state the measured log10 of IC50 for N.O=[N+]([O-])c1ccc(OP(=O)(O)C(NS(=O)(=O)c2cccs2)c2ccccc2)cc1 (centres unmarked) [Compound 53, ammonium salt] .
2.56

Answer with the recorded log10 of IC50 for the compound listed here: CC(C)C(NS(=O)(=O)c1cccs1)P(=O)(O)Oc1cccnc1Cl.N (centres unmarked) [Compound 54, ammonium salt]
3.26

Annotate the compound CN(CP(=O)(O)Oc1ccc([N+](=O)[O-])cc1)S(=O)(=O)c1cccs1.N [Compound 47, ammonium salt] with its measured log10 of IC50.
2.44

Answer with the recorded log10 of IC50 of `O=[N+]([O-])c1ccc(OP(=O)(O)CNS(=O)(=O)c2cccs2)cc1` only.
1.26

Data provenance is patent US7259172B2.
